Here the recorded IC50 is given for each entry.
TEST TARGET: PI3K-α (PIK3CA) wild-type (WT), p110α/p85α complex (Homo sapiens, UniProt P42336)
Construct: Recombinant, catalytically active human full length PIK3KA Wild-type and H1047R mutant; 6×His (N); purchased EMD Millipore Sigma 14-602M
EXPERIMENT NOTES: PI3K-alpha kinase (PIK3CA) biochemical activity, ADP-Glo, wild-type
EXPERIMENTAL CONDITIONS: Soy PI lipid substrate

Cc1cc([C@@H](C)Nc2ccccc2C(=O)O)c2oc(-c3ccc4c(cnn4Cc4ccccc4)c3)c(C)c(=O)c2c1
500 to 1000 nM
Cc1cc(C(C)Nc2ccccc2C(=O)O)c2oc(-c3ccn4cnnc4c3)cc(=O)c2c1 (single isomer, unassigned)
> 10000 nM
Cc1cc(C(C)Nc2ccccc2C(=O)O)c2oc(-c3cc4ncccc4[nH]3)cc(=O)c2c1 (single isomer, unassigned)
1000 to 5000 nM
Cc1cc(C(C)Nc2ccccc2C(=O)O)c2oc(-c3nccc4cn(C)nc34)cc(=O)c2c1 (single isomer, unassigned)
5000 to 10000 nM
CC(Nc1ccc(Cl)nc1C(=O)O)c1cc(C(F)(F)F)cc2c(=O)cc(-c3cc4ccccc4[nH]3)oc12 (single isomer, unassigned)
> 10000 nM

Query block: Sample Cc1cc(C(C)Nc2ccccc2C(=O)O)c2oc(-c3cnn4cccnc34)cc(=O)c2c1 (single isomer, unassigned) [Example 34] — what was its IC50?
Result block: 1000 to 5000 nM

Query block: Cc1cc(C(C)Nc2cccc(F)c2C(=O)O)c2oc(-c3ccc4nn(C)cc4c3)cc(=O)c2c1 (stereo not shown) [Example 103] , same question.
Result block: 1000 to 5000 nM

Query block: Try this compound next: Cc1cc([C@@H](C)Nc2cccc(F)c2C(=O)O)c2oc(-c3ccc4nc(C)cn4c3)c(C)c(=O)c2c1
Result block: < 500 nM

Query block: Now consider Cc1cc(C(C)Nc2ccccc2C(=O)O)c2oc(-c3nccc4cnn(C)c34)cc(=O)c2c1 (single isomer, unassigned) and answer again.
Result block: 5000 to 10000 nM

Query block: Do the same for Cc1cc(C(C)Nc2ccccc2C(=O)O)c2oc(-c3ccc4nc(C)cn4n3)c(C)c(=O)c2c1 (single isomer, unassigned) please
Result block: 1000 to 5000 nM

Query block: Again, but for Cc1cc(C(C)Nc2ccccc2C(=O)O)c2oc(-c3cnc4c(c3)OCCO4)cc(=O)c2c1 (single isomer, unassigned)
Result block: 5000 to 10000 nM

Query block: Request: Cc1cc(C(C)Nc2ccccc2C(=O)O)c2oc(-c3nn(C)c4ccccc34)cc(=O)c2c1 (single isomer, unassigned) [Example 23]
Result block: 500 to 1000 nM

Query block: Now this one: Cc1cc([C@@H](C)Nc2ccc(F)cc2C(=O)O)c2oc(-c3ccc4c(cnn4C)c3)c(C)c(=O)c2c1
Result block: < 500 nM

Query block: Lookup Cc1cc(C(C)Nc2ccccc2C(=O)O)c2oc(-c3cnc4ccccn34)cc(=O)c2c1 (single isomer, unassigned)
Result block: 1000 to 5000 nM

Query block: What do you have for Cc1cc(-c2cc(=O)c3cc(C(F)(F)F)cc(C(C)Nc4ccc(Cl)nc4C(=O)O)c3o2)cc2cn(C)nc12 (single isomer, unassigned) [Example 192] ?
Result block: 500 to 1000 nM

Query block: Same for Cc1cc(C(C)Nc2ccccc2C(=O)O)c2oc(-c3cc4ccncc4o3)cc(=O)c2c1 (single isomer, unassigned) [Example 39]
Result block: 1000 to 5000 nM

Query block: Next up: Cc1cc(C(C)Nc2ccccc2C(=O)O)c2oc(-c3cnn4ccccc34)cc(=O)c2c1 (single isomer, unassigned) [Example 29]
Result block: 5000 to 10000 nM

Query block: Now consider Cc1cc([C@@H](C)Nc2ccc(Cl)nc2C(=O)O)c2oc(-c3cc4cnccc4o3)c(C)c(=O)c2c1 and answer again.
Result block: < 500 nM

Query block: Here is the next compound: Cc1cc(C(C)Nc2ccc(C)nc2C(=O)O)c2oc(-c3nn(C)c4ccccc34)cc(=O)c2c1 (single isomer, unassigned)
Result block: > 10000 nM

Query block: Here is the next compound: Cc1cc(C(C)Nc2ccccc2C(=O)O)c2oc(-c3ccc4nc(C#N)ccc4c3)cc(=O)c2c1 (single isomer, unassigned)
Result block: 500 to 1000 nM

Query block: Also, Cc1cc(C(C)Nc2ccccc2C(=O)O)c2oc(-c3ccc4c(C)n[nH]c4c3)cc(=O)c2c1 (single isomer, unassigned) please.
Result block: 1000 to 5000 nM

Query block: Lookup Cc1cc([C@@H](C)Nc2cccnc2C(=O)O)c2oc(-c3ccc4nc(C)sc4n3)c(C)c(=O)c2c1
Result block: 1000 to 5000 nM

Attribution: patent US11878970B2
